Recorded Ki, one value per entry.
ASSAYED SYSTEM: Akt2 (Homo sapiens)
Sequence (P31751 whole entry): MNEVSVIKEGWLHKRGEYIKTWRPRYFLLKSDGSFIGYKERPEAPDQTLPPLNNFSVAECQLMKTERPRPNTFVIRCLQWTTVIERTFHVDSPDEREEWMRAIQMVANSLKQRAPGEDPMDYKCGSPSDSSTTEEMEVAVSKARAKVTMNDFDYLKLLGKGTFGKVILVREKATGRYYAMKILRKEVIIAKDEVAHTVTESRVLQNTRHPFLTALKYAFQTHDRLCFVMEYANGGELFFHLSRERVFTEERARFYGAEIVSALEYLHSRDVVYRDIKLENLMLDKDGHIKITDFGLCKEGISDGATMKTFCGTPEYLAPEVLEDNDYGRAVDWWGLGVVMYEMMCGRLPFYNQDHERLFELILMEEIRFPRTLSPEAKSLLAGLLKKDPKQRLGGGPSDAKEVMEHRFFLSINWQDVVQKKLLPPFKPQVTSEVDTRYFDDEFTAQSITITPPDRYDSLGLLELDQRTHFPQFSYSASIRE
ASSAY SUMMARY: PhosphoSens continuous fluorometric kinetic enzyme assay
CONDITION SUMMARY: Ki Akt2

COMPOUND: C=CC(=O)Nc1ccc2[nH]c(=O)n(C3CCN(Cc4ccc(-c5ncc(Cc6cccnc6)cc5-c5ccccc5)cc4)CC3)c2c1 [compound 21]
ASSAYED SYSTEM: Akt2 (Homo sapiens)
QUANTITY UNIT: nM
Ki: 21
--
COMPOUND: C=CC(=O)Nc1ccc2[nH]c(=O)n(C3CCN(Cc4ccc(-c5ncc(C(=O)Nc6cccnc6)cc5-c5ccccc5)cc4)CC3)c2c1 [compound 22]
ASSAYED SYSTEM: Akt2 (Homo sapiens)
QUANTITY UNIT: nM
Ki: 11
--
COMPOUND: C=CC(=O)Nc1ccc2[nH]c(=O)n(C3CCN(Cc4ccc(-c5ncc(C(=O)Nc6cnn(C)c6)cc5-c5ccccc5)cc4)CC3)c2c1 [compound 13]
ASSAYED SYSTEM: Akt2 (Homo sapiens)
QUANTITY UNIT: nM
Ki: 40
--
COMPOUND: C=CC(=O)Nc1ccc2[nH]c(=O)n(C3CCN(Cc4ccc(-c5ncc(Cn6ccnc6)cc5-c5ccccc5)cc4)CC3)c2c1 [compound 11]
ASSAYED SYSTEM: Akt2 (Homo sapiens)
QUANTITY UNIT: nM
Ki: 11
--
COMPOUND: C=CC(=O)Nc1ccc2[nH]c(=O)n(C3CCN(Cc4ccc(-c5ncc(C(=O)NCC(C)C)cc5-c5ccccc5)cc4)CC3)c2c1 [compound 10]
ASSAYED SYSTEM: Akt2 (Homo sapiens)
QUANTITY UNIT: nM
Ki: 4
--
COMPOUND: C=CC(=O)Nc1ccc2[nH]c(=O)n(C3CCN(Cc4ccc(-c5ncc(Cc6cn[nH]c6)cc5-c5ccccc5)cc4)CC3)c2c1 [compound 14]
ASSAYED SYSTEM: Akt2 (Homo sapiens)
QUANTITY UNIT: nM
Ki: 11
--
COMPOUND: C=CC(=O)Nc1ccc2[nH]c(=O)n(C3CCN(Cc4ccc(-c5ncc(C(=O)Nc6cccc(N)c6)cc5-c5ccccc5)cc4)CC3)c2c1 [compound 18]
ASSAYED SYSTEM: Akt2 (Homo sapiens)
QUANTITY UNIT: nM
Ki: 11
--
COMPOUND: C=CC(=O)Nc1ccc2[nH]c(=O)n(C3CCN(Cc4ccc(-c5ncc(Cc6ccc(N)nc6)cc5-c5ccccc5)cc4)CC3)c2c1 [compound 20]
ASSAYED SYSTEM: Akt2 (Homo sapiens)
QUANTITY UNIT: nM
Ki: 95

---

ASSAYED SYSTEM: Akt1 (Homo sapiens, UniProt P31749)
Sequence (P31749 whole entry): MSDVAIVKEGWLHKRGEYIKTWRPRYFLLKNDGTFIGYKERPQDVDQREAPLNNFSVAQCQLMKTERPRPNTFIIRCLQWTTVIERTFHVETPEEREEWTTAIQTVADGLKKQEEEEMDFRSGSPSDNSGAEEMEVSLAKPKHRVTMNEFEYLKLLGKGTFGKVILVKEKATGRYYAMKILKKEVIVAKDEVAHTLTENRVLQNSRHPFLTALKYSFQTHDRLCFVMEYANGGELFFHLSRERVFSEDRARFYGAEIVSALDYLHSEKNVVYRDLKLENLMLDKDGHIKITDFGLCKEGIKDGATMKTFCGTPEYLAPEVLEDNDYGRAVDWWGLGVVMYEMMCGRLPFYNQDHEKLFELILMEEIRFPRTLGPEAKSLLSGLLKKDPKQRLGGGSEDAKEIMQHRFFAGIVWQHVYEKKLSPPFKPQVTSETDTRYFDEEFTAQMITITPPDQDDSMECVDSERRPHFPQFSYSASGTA
ASSAY SUMMARY: STK HTRF KinEASE activity-based assay (IC50)
CONDITION SUMMARY: HTRF IC50 Akt1, Mean, mean of replicates
Recorded IC50, one value per entry.

INPUT SMILES: C=CC(=O)Nc1ccc2[nH]c(=O)n(C3CCN(Cc4ccc(-c5ncc(C(=O)NC)cc5-c5ccccc5)cc4)CC3)c2c1
IC50, µM: 0.112

INPUT SMILES: C=CC(=O)Nc1ccc2[nH]c(=O)n(C3CCN(Cc4ccc(-c5ncc(CNCC(C)C)cc5-c5ccccc5)cc4)CC3)c2c1
IC50, µM: 5.93

INPUT SMILES: C=CC(=O)Nc1ccc2[nH]c(=O)n(C3CCN(Cc4ccc(-c5ncc(C(=O)N6CCCC6)cc5-c5ccccc5)cc4)CC3)c2c1
IC50, µM: 4.57

INPUT SMILES: C=CC(=O)Nc1ccc2[nH]c(=O)n(C3CCN(Cc4ccc(-c5ncc(Cc6ccc(N)cc6)cc5-c5ccccc5)cc4)CC3)c2c1
IC50, µM: 1.8
